- ASSAYED SYSTEM: Ribonuclease HI (Escherichia coli (strain K12))
- ASSAY DETAILS: E. coli RNase HI inhibitors, dose response, biochemical, FRET RNA/DNA duplex cleavage (AID 365)
- MEASUREMENT CONTEXT: E. coli RNase H, FRET RNA/DNA cleavage fluorescence
Active and inactive are the calls of the source. No rule for the calls is given here.
Write down the outcome that applies. Available outcomes: T (active), F (inactive)

These recorded examples may help you get a feel for the data.
CC(C)=CCC[C@]1(C)[C@@H](CC=C(C)C)C[C@@]2(CC=C(C)C)C(=O)/C(=C(\O)c3ccc(O)c(O)c3)C(=O)[C@]1(CC=C(C)C)C2=O    T
Cc1c(Cl)ccc2c1NC(C(=O)O)C1CC=CC21 (stereo unspecified)    T
COc1ccccc1N=C(NOCc1ccc(Cl)cc1Cl)c1nonc1N    F

Record lookup: outcome of this test for O=C1NC(=S)N(c2ccc(Cl)cc2)C(=O)/C1=C/c1ccc(Br)o1 ?
T

Next up: O=C(O)c1cc(-c2ccc(/C=C3/Sc4ccccc4C3=O)o2)ccc1O
T

Next: O=C1C(Cl)=CC(=NS(=O)(=O)c2ccccc2)C=C1Cl
F

Record: Cc1onc(-c2ccccc2)c1C(=O)Nc1sc(C)c(C)c1C(N)=O
F

Entry to check: COc1cc(-c2[o+]c3cc(O)cc(O)c3cc2O)cc(O)c1O
F

Could you do the same for COc1ccc(NC(=O)c2c(N)sc(-c3ccccc3)c2C)cc1 , please?
T

Would you kindly repeat that for O=C1NC(=S)N(c2ccccc2F)C(=O)/C1=C/c1ccc(OCc2cccc(C(=O)O)c2)cc1 ?
F

Record: Oc1cc(O)c2cc(O)c(-c3ccc(O)c(O)c3)[o+]c2c1
T

Repeat with O=C1C=C/C(=N\S(=O)(=O)c2cc(Cl)ccc2Cl)C=C1Cl
T

Follow-up entry: COc1ccc(-c2nc3sc(-c4ccc(OC)cc4)nc3s2)cc1
F

Item: C=C1C(=O)O[C@@H]2/C=C(\C)CC/C=C(\C(=O)O)CC/C=C(\C)CC[C@H]12
F

###

- ASSAYED SYSTEM: Ribonuclease HI (Escherichia coli (strain K12)) (UniProt P0A7Y4)
- Sequence (P0A7Y4 whole entry, looked up): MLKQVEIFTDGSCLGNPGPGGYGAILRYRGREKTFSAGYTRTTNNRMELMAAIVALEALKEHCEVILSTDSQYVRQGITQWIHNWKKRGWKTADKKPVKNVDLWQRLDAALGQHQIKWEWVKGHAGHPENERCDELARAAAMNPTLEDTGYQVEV
- ASSAY DETAILS: E. coli RNase HI inhibitors, dose response, biochemical, FRET RNA/DNA duplex cleavage (AID 365)
- MEASUREMENT CONTEXT: E. coli RNase H, FRET RNA/DNA cleavage fluorescence
Activity calls are given as the source filed them. How the calls were made is not given here.
ASSAY ENDPOINT: IC50

N#Cc1c(N)nc(SCC(=O)c2ccc(O)c(O)c2)c(C#N)c1-c1ccc(O)cc1    1.7 µM
CC(=O)O[C@H](C)[C@@H]1C2=C(C(=O)C[C@]1(C)O)C(=O)c1c(ccc(-c3ccc4c(c3O)C(=O)C3=C(C4=O)[C@@H]([C@@H](C)OC(C)=O)[C@@](C)(O)CC3=O)c1O)C2=O    > 100 µM (inactive)
COc1ccc(/C=C\C(=O)c2c(-c3ccccc3)c3cc(C)ccc3[nH]c2=O)c(OC)c1    9 µM
CN(C)S(=O)(=O)c1ccc(Nc2ccc(O)c3c2C(=O)c2c([N+](=O)[O-])ccc(O)c2C3=O)cc1    8 µM

Given the entry O=C1C=C(NCCc2cc(Br)c(O)c(Br)c2)C(=O)c2ncccc21 , report its measured IC50.
inactive

Proceed to CC(C)=Cc1cc(CCC/C(C)=C/Cc2c(O)cc(C)c(C(=O)O)c2O)co1
inactive

Ok, now CC(C)c1ccc(O)c(=O)cc1
> 100 µM (inactive)

CC1=NN(c2ccc(S(N)(=O)=O)cc2)C(=O)/C1=C/c1ccc(-c2ccc(Cl)cc2Cl)o1 , same question.
9 µM

###

- ASSAYED SYSTEM: Ribonuclease HI (Escherichia coli (strain K12)) (UniProt P0A7Y4)
- ASSAY DETAILS: E. coli RNase HI inhibitors, dose response, biochemical, FRET RNA/DNA duplex cleavage (AID 365)
- MEASUREMENT CONTEXT: E. coli RNase H, FRET RNA/DNA cleavage fluorescence
Calls of active or inactive are those of the source. The rule behind the calls is not given here.
Thanks in advance; please answer with one of these: t = active, f = inactive

Please review the entries below; each comes with its answer.
O=C1C(Cl)=C/C(=N\S(=O)(=O)c2ccc(Cl)cc2)C(Cl)=C1Cl    f
C[C@]12CC[C@H]3[C@@H](CCC4=CC(=O)CC[C@@]43C)[C@@H]1CC[C@@H]2C(=O)COS(=O)(=O)c1ccc(Br)cc1    f
Cc1sc(NC(=O)c2cccc([N+](=O)[O-])c2)c(C(N)=O)c1C    t

Next up:
Assay outcome for C=C/C(C)=C/C[C@]1(C)[C@H](C)CC[C@@]23C(=C[C@H](OC(=O)c4ccc(O)c(OC)c4)C[C@@H]12)[C@@H](OC(C)=O)O[C@H]3OC(C)=O : what was it?
f
